- target_or_test_system: Monoamine transporters; serotonin & dopamine (Rattus norvegicus) (UniProt P31652+P23977)
- Sequence (P23977 whole entry, looked up, one chain of several): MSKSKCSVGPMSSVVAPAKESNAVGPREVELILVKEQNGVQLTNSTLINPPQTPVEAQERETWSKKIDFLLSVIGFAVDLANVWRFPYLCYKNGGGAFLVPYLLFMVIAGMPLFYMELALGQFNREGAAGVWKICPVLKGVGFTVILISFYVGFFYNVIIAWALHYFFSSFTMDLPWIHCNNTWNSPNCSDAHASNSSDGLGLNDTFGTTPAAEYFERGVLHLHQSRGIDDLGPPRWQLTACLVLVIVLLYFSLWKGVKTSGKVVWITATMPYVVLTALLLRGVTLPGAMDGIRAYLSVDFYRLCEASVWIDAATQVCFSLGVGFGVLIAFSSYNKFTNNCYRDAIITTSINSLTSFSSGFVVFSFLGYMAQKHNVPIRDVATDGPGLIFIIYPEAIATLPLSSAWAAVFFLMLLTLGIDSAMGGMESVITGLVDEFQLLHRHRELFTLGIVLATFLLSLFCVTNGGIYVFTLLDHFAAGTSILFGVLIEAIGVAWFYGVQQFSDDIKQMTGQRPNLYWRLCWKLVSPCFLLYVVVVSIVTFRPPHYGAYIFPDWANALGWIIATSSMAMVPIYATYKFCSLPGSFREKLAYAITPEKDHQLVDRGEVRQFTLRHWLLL
- assay_details: Selectivity for serotonin and dopamine transporters
- Type: protein assay
experimental_readout: Selectivity
Could you respond with only the numeric value?

Consider the following illustrative entries.
Fc1ccc(C(OCCC2CCN(Cc3ccccc3)CC2)c2ccc(F)cc2)cc1    20
Fc1ccc(C(OCC2CCN(CCCc3ccccc3)CC2)c2ccc(F)cc2)cc1    8.6
Cc1ccc(C(OCCC2CCN(CCc3ccccc3)CC2)c2ccc(C)cc2)cc1    2.8

// lookup Selectivity for Brc1ccc(C(OCCC2CCN(CCc3ccccc3)CC2)c2ccc(Br)cc2)cc1 1.6

Record: c1ccc(CCCN2CCC(COC(c3ccccc3)c3ccccc3)CC2)cc1 4

Request: Fc1ccc(C(OCC2CCN(Cc3ccccc3)CC2)c2ccc(F)cc2)cc1 6

For COc1ccc(C(OCCC2CCN(CCCc3ccccc3)CC2)c2ccc(OC)cc2)cc1 then? 1.3

---

Below: a set of entries, each annotated with reported Selectivity.
- target_or_test_system: Monoamine transporters; serotonin & dopamine (Rattus norvegicus) (UniProt P31652+P23977)
- assay_details: Selectivity for serotonin and dopamine transporters
- Type: protein assay
Answer as a number with no unit attached.

Example molecules with recorded Selectivity:
c1ccc(CCCN2CCC(CCOC(c3ccccc3)c3ccccc3)CC2)cc1    20
c1ccc(CCN2CCC(COC(c3ccccc3)c3ccccc3)CC2)cc1    4.2
c1ccc(CN2CCC(COC(c3ccccc3)c3ccccc3)CC2)cc1    0.7

Quick one: Selectivity for Fc1ccc(C(OCC2CCN(CCc3ccccc3)CC2)c2ccc(F)cc2)cc1 ? 17.5

Then Clc1ccc(C(OCCC2CCN(CCCc3ccccc3)CC2)c2ccc(Cl)cc2)cc1 ? 3.5

Then Fc1ccc(C(OCCC2CCN(CCCc3ccccc3)CC2)c2ccc(F)cc2)cc1 ? 3.3

---

# IC50 per record follows
- target_or_test_system: Sodium-dependent serotonin transporter (Rattus norvegicus)
- Sequence (P31652 whole entry): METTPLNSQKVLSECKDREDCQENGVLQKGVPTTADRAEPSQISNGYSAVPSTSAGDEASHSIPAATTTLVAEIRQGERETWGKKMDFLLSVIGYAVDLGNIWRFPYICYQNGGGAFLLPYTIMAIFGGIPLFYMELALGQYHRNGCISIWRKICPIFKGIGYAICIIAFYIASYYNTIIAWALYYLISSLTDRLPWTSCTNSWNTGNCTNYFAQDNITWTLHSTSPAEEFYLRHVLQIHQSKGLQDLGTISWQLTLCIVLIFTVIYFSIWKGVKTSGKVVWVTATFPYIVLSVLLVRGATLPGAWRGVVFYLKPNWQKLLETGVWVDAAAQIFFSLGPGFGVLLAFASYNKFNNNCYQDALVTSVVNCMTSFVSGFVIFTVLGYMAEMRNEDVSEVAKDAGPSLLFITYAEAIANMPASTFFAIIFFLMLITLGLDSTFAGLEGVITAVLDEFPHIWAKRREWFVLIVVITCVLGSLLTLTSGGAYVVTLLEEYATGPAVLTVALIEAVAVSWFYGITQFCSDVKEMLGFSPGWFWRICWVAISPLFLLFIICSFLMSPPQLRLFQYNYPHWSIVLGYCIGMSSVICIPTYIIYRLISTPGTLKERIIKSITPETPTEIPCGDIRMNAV
Reply with just the number (in nM).

Which IC50 value is on record for Fc1ccc(C(OCC2CCN(CCCc3ccccc3)CC2)c2ccc(F)cc2)cc1 ? 112

Then this compound: Fc1ccc(C(OCCC2CCN(Cc3ccccc3)CC2)c2ccc(F)cc2)cc1 198

---

- target_or_test_system: Sodium-dependent dopamine transporter (Rattus norvegicus)
- Sequence (P23977 whole entry): as the sequence (P23977 whole entry, looked up, one chain of several) above
Labelling: IC50 reported below 60 nM becomes satisfied; at or above becomes not satisfied.

Check out these entries, answers already filled in.
Clc1ccc(C(OCCC2CCN(CCCc3ccccc3)CC2)c2ccc(Cl)cc2)cc1    not satisfied
Fc1ccc(C(OCC2CCN(CCc3ccccc3)CC2)c2ccc(F)cc2)cc1    satisfied
Clc1ccc(C(OCCC2CCN(CCc3ccccc3)CC2)c2ccc(Cl)cc2)cc1    not satisfied

Could you please tell me whether IC50 recorded for c1ccc(CCCN2CCC(CCOC(c3ccccc3)c3ccccc3)CC2)cc1 is less than 60 nM? satisfied

---

- target_or_test_system: Sodium-dependent serotonin transporter (Rattus norvegicus)
experimental_readout: pIC50
// pIC50: -log10(molar conc.)

c1ccc(CN2CCC(CCOC(c3ccccc3)c3ccccc3)CC2)cc1    6.13
c1ccc(CCCN2CCC(CCOC(c3ccccc3)c3ccccc3)CC2)cc1    6.63
COc1ccc(C(OCCC2CCN(CCCc3ccccc3)CC2)c2ccc(OC)cc2)cc1    6.47
Fc1ccc(C(OCC2CCN(Cc3ccccc3)CC2)c2ccc(F)cc2)cc1    6.12
Fc1ccc(C(OCCC2CCN(CCCc3ccccc3)CC2)c2ccc(F)cc2)cc1    7.26
Fc1ccc(C(OCCC2CCN(CCc3ccccc3)CC2)c2ccc(F)cc2)cc1    7.50
Clc1ccc(C(OCCC2CCN(CCCc3ccccc3)CC2)c2ccc(Cl)cc2)cc1    6.65
Brc1ccc(C(OCCC2CCN(CCCc3ccccc3)CC2)c2ccc(Br)cc2)cc1    6.08
c1ccc(CCCN2CCC(COC(c3ccccc3)c3ccccc3)CC2)cc1    7.24

Please turn your attention to the following entry.
# get_value(readout='pIC50', item= Brc1ccc(C(OCCC2CCN(CCc3ccccc3)CC2)c2ccc(Br)cc2)cc1 ) 6.20
